# System: U-251
# Test details: NCI tumour cell line growth inhibition, 48 h
Active and inactive are the calls of the source. No stated cut-off is given here; in the data, active = GI50 up to about 1.1 µM and inactive = higher.
Measured quantity: GI50

>>> df
                                    molecule           data_value
 0  COc1ccc(/C(Nc2ccccc2)=C(\CCl)c2ccccc2)cc1OC   6.53 µM (inactive)
 1  COC1=CC(=O)[C@H]2[C@H](C)C(c3ccccc3)[C@@]2(C)C1=O (some centres not stated)  > 100 µM (inactive)
 2              Cc1ccc2c(c1)CNc1ccc(C)cc1CN2  > 100 µM (inactive)
 3  Cc1ccc(NC(=O)CCC/C(CC(=O)c2ccc(Br)cc2)=N/NC(=O)CC#N)cc1  > 100 µM (inactive)
 4                       O=C1CCCC/C1=C(\Br)I     18 µM (inactive)
 5  CCCCCCCCCCCCCCCC(=O)OCC1CCCN2CCCCC12 (configuration not stated)  > 100 µM (inactive)
 6  CCOC(=O)CC(C)C1(C=O)CCCCC1=O (configuration not stated)  > 100 µM (inactive)
 7  COc1ccc(OC2OC(CO)C(O)C(O)C2O)cc1 (configuration not stated)  > 100 µM (inactive)
 8  CN1CN(c2ccccc2)C2(CCN(CCCN(C)c3ccc(F)cc3)CC2)C1=O   18.6 µM (inactive)
 9  CN(C)CCCNC(=O)CNC(=O)c1cc(NC(=O)c2cc(NC(=O)c3cc(NC(=O)CCNC(=O)c4cc(NC(=O)c5cc(NC(=O)c6nccn6C)cn5C)cn4C)cn3C)cn2C)cn1C  > 100 µM (inactive)
10           Cc1cc2c(=O)c3ccccc3oc2c(C#N)c1C  > 100 µM (inactive)
11  C/N=C(\N=c1/ss/c(=N\C)n1C)N(C)C.[O-][Cl+3]([O-])([O-])O  > 100 µM (inactive)
